B1: SNAP91 (parent)
chain: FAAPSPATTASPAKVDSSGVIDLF

Variants of: B1
measurement-notes: protein stability index of a GFP-peptide fusion (GPS, HEK-293T) (PSI 1-6); higher = more stable;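 also: lentivirally expressed fusions sorted by FACS into six bins by GFP to DsRed ratio, PSI derived from sequencing read proportions per bin multiplied by bin number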
conditions-used: c terminus: a fixed tail appended
# cutoff 2 applies to protein stability index; >= gives Fulfilled, < gives Not fulfilled

Given the entry F1K , answer whether its protein stability index meets or surpasses 2.
Fulfilled

Given the entry I21G , answer whether its protein stability index meets or surpasses 2.
Fulfilled

Given the entry S17N , answer whether its protein stability index meets or surpasses 2.
Fulfilled

Given the entry D16T , answer whether its protein stability index meets or surpasses 2.
Fulfilled

Given the entry K14Y , answer whether its protein stability index meets or surpasses 2.
Fulfilled

Given the entry P6H , answer whether its protein stability index meets or surpasses 2.
Fulfilled

Given the entry L23P , answer whether its protein stability index meets or surpasses 2.
Fulfilled

Given the entry A7C , answer whether its protein stability index meets or surpasses 2.
Not fulfilled

Given the entry D16H , answer whether its protein stability index meets or surpasses 2.
Fulfilled

Given the entry T9Y , answer whether its protein stability index meets or surpasses 2.
Not fulfilled

Given the entry I21T , answer whether its protein stability index meets or surpasses 2.
Fulfilled

Given the entry S18A , answer whether its protein stability index meets or surpasses 2.
Fulfilled

Given the entry D16N , answer whether its protein stability index meets or surpasses 2.
Fulfilled

Given the entry D16W , answer whether its protein stability index meets or surpasses 2.
Not fulfilled

Given the entry P12E , answer whether its protein stability index meets or surpasses 2.
Fulfilled

Given the entry L23N , answer whether its protein stability index meets or surpasses 2.
Fulfilled

Given the entry F1W , answer whether its protein stability index meets or surpasses 2.
Fulfilled

Given the entry F24S , answer whether its protein stability index meets or surpasses 2.
Fulfilled

Given the entry T9N , answer whether its protein stability index meets or surpasses 2.
Fulfilled

Given the entry A13D , answer whether its protein stability index meets or surpasses 2.
Fulfilled

Given the entry S11V , answer whether its protein stability index meets or surpasses 2.
Fulfilled

Given the entry S5D , answer whether its protein stability index meets or surpasses 2.
Fulfilled

Given the entry L23I , answer whether its protein stability index meets or surpasses 2.
Fulfilled

Given the entry S5Q , answer whether its protein stability index meets or surpasses 2.
Fulfilled

Given the entry A3Y , answer whether its protein stability index meets or surpasses 2.
Not fulfilled

Given the entry A3I , answer whether its protein stability index meets or surpasses 2.
Fulfilled

Given the entry A7E , answer whether its protein stability index meets or surpasses 2.
Fulfilled

Given the entry A10S , answer whether its protein stability index meets or surpasses 2.
Fulfilled

Given the entry A7W , answer whether its protein stability index meets or surpasses 2.
Fulfilled

Given the entry V20F , answer whether its protein stability index meets or surpasses 2.
Not fulfilled

Given the entry A10F , answer whether its protein stability index meets or surpasses 2.
Not fulfilled

Given the entry K14Q , answer whether its protein stability index meets or surpasses 2.
Fulfilled

Given the entry G19F , answer whether its protein stability index meets or surpasses 2.
Not fulfilled
